pKi: −log10 of the molar value. Where a SMILES comes first, the peptide text is derived from it. Bridges are numbered along the chain shown (N, C = ends). [ ]: non-standard residue; d: D form. Ala(1-amidino-4-piperidyl) = N=C(N)N1CCC(C[C@H](N)C(=O)O)CC1
Measured pKi (Prothrombin (Homo sapiens))

CC(C)C[C@@H]1NC(=O)[C@H](Cc2ccc(O)cc2)NC(=O)[C@H](CC2CCN(C(=N)N)CC2)NC(=O)[C@H](CO)NC(=O)[C@H](Cc2ccc(O)cc2)NC(=O)[C@H](C)NC(=O)[C@@H]2CCCN2C(=O)[C@@H](N)CSSC[C@@H](C(=O)O)NC(=O)[C@H](CC(=O)O)NC1=O (H-CPAYS[Ala(1-amidino-4-piperidyl)]YLDC-OH; disulfide 1-10)	< 3.00

Query: Would you kindly share the measured pKi for CC(C)C[C@@H]1NC(=O)[C@H](C)NC(=O)[C@H](CC2CCN(C(=N)N)CC2)NC(=O)[C@H](Cc2ccccc2)NC(=O)[C@H](CCCNC(=N)N)NC(=O)[C@H](C)NC(=O)[C@@H]2CCCN2C(=O)[C@@H](N)CSSC[C@@H](C(=O)O)NC(=O)[C@H](Cc2ccccc2)NC1=O (H-CPARF[Ala(1-amidino-4-piperidyl)]ALFC-OH; disulfide 1-10) ?
Result: < 3.00
